Each recorded value in this set is attributed to the supplement of paper PMC10567573.

B1: FAM189A2 (parent)
chain: CALNALTTTVCLVAAALRYLQIFA

# Variants of: B1
# methodSummary: protein stability index of a GFP-peptide fusion (GPS, HEK-293T) (PSI 1-6); higher = more stable;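 note: lentivirally expressed fusions sorted by FACS into six bins by GFP to DsRed ratio, PSI derived from sequencing read proportions per bin multiplied by bin number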
# testContext: c terminus: a fixed tail appended

variantLabel	protein stability index
A16T	1.94
C1H	2.7
C1L	1.59
Y19K	2.19
A14V	1.9
L6P	3.83
F23Y	2.85
A2Y	3.17
Y19R	2.4
C11N	1.91
V10I	2.3
Q21V	2.12
A5Q	3.79
C1A	2.05
A14K	2.69
I22L	2.83
A16R	3.06
Y19N	3.25
L17M	4.11
T8I	3.39
T7I	3.6
V10F	1.53
L17T	2.14
T9F	2.07
N4D	2.85
C1F	4.75
V13G	3.15
L17I	4.04
C11Y	3.58
C1P	1.11
C1D	2.46
L6R	2.87
I22W	3.83
A16L	3.09
A15T	1.8
T8M	2.93
A5V	1.92
L20Q	3.06
I22K	2.14
Q21N	2.02
L3D	3.27
L6Y	3.27
A14C	4.5
V13N	2.88
A2F	4.07
A5R	2.98
N4H	3.53
V10W	2.05
T9L	2.69
A5C	3.07
